# TEST TARGET: Ba/F3-FL-EGFR-L858R-T790M-C797S (Homo sapiens, UniProt P00533, T790M/C797S/L858R, cells depend on it)
# Sequence (P00533 whole entry T790M/C797S/L858R): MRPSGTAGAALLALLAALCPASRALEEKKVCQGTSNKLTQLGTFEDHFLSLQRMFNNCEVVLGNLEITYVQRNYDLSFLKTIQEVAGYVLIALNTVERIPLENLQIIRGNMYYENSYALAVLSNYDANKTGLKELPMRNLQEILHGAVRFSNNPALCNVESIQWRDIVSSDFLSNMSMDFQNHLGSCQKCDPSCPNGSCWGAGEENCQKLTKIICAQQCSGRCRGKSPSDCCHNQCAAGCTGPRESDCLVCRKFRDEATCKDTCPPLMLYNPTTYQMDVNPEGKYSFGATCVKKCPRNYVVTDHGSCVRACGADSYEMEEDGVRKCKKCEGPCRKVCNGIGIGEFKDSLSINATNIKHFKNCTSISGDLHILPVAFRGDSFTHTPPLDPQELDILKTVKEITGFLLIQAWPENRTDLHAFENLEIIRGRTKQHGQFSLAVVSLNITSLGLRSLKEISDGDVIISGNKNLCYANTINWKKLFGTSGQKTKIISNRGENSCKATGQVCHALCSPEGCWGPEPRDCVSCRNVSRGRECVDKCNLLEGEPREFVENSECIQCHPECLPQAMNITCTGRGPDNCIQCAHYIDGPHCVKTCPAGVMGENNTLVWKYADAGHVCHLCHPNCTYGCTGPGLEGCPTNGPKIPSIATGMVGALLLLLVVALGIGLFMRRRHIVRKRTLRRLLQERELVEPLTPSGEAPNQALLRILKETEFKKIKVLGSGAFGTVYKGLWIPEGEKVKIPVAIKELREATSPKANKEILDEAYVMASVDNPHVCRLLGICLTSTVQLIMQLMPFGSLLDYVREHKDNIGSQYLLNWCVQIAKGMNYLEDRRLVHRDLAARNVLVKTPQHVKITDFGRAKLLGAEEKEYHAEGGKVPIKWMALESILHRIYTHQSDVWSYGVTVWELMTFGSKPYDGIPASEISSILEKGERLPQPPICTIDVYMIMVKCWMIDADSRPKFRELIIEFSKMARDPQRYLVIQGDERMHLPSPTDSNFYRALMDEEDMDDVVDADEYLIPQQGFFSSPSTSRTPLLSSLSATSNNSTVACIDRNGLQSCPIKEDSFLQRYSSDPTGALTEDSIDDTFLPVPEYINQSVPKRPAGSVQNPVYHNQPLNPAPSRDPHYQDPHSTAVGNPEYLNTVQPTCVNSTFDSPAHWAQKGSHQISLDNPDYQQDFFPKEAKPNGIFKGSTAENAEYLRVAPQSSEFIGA
# TEST NAME: CellTiter-Glo proliferation, Ba/F3-FL-EGFR-L858R-T790M-C797S
# Assay type: cell-based
# RUN PARAMETERS: 72 hours, read-out: Ba/F3-FL-EGFR-L858R-T790M-C797S IC50/nM
Returns the class for an entry based on its GI50. Class ranges: small value (below 70 nM), mid value (70 nM to below 100 nM), large value (100 nM or more)

Here are 4 compounds together with their reported answers.
Form: Item = CC(C)c1ccc(N2CC(CS(C)(=O)=O)C2)c2cnc(Nc3ccnc(-c4cnn(S(=O)(=O)c5ccccn5)c4)n3)cc12 ; Class = ?
large value

Form: Item = CC(C)c1ccc(N2CC(N3CCCS3(=O)=O)C2)c2cnc(Nc3ccnc(N4CCC(O)C(F)C4)n3)cc12 (stereo not shown) ; Class = ?
mid value

Form: Item = CC(C)c1ccc(N2CC(CS(C)(=O)=O)C2)c2cnc(Nc3ccnc(-c4cnn(CC#N)c4)n3)cc12 ; Class = ?
large value

Form: Item = CC(C)c1ccc(N2CC(CS(C)(=O)=O)C2)c2cnc(Nc3ccnc(-c4cnn(S(=O)(=O)CC5CC5)c4)n3)cc12 ; Class = ?
large value

***
Form: Item = COCCS(=O)(=O)n1cc(-c2nccc(Nc3cc4c(C(C)C)ccc(N5CC(CS(C)(=O)=O)C5)c4cn3)n2)cn1 [Compound H15] ; Class = ?
small value

Form: Item = CC(C)c1ccc(N2CC(NS(=O)(=O)c3ccoc3)C2)c2cnc(Nc3ccnc(N4CCC(O)C(F)C4)n3)cc12 (stereo not shown) ; Class = ?
mid value

Form: Item = [2H]C([2H])([2H])N([C@H]1CN(c2ccc(C(C)C)c3cc(Nc4ccnc(N5CCC(OC)C(F)C5)n4)ncc23)[C@@H]1C)S(C)(=O)=O (stereo partly shown) ; Class = ?
small value

Form: Item = CC(C)c1ccc(N2CC(CS(C)(=O)=O)C2)c2cnc(Nc3ccnc(-c4cnn(S(=O)(=O)C5CCC5)c4)n3)cc12 ; Class = ?
large value

###

# TEST TARGET: EGFR (L858R/C797S) (Homo sapiens, UniProt P00533, C797S/L858R)
# Sequence (P00533 25-1210 C797S/L858R): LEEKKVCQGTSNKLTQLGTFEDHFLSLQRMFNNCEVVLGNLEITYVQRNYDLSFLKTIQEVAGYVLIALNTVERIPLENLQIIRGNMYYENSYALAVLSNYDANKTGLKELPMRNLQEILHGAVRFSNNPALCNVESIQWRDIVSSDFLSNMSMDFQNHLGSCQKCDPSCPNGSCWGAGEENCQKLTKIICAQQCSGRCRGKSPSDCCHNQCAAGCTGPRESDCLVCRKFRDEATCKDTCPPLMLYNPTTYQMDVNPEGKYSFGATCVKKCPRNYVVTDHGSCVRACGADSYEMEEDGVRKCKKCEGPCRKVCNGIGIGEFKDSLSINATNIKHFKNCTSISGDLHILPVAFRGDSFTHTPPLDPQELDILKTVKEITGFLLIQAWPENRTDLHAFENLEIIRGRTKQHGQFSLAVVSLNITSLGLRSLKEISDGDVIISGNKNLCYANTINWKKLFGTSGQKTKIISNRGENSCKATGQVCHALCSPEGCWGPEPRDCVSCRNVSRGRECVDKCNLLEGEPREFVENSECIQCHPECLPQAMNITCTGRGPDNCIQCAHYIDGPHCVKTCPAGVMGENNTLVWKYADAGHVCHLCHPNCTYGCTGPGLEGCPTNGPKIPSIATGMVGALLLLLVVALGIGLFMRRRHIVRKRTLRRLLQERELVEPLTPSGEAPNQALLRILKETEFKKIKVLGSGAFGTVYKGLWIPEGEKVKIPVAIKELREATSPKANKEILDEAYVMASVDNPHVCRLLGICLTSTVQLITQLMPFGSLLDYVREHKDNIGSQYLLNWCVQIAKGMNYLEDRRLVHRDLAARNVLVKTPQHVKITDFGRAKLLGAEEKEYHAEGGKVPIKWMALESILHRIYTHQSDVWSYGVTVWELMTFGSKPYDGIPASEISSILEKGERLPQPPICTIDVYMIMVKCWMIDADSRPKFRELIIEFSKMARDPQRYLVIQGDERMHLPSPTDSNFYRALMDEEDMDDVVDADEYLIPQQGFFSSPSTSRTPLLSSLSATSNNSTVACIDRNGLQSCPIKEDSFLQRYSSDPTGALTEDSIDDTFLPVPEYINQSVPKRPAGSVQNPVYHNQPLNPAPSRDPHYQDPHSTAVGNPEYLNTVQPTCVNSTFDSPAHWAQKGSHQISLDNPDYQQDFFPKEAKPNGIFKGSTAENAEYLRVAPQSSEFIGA
# TEST NAME: MSA (Mobility Shift Assay) kinase activity, EGFR-L858R-C797S
# Format: biochemical
The following molecules are shown together with reported IC50 values.
Dear colleague, please return just the value in nM, with no unit written.

Field IC50 (system: EGFR (L858R/C797S) (Homo sapiens, UniProt P00533, C797S/L858R)) for entry CC(C)c1ccc(N2CC(CC(N)=O)C2)c2cnc(Nc3ccnc(N4CCC(O)C(F)C4)n3)cc12 (stereo not shown) = 22

Field IC50 (system: EGFR (L858R/C797S) (Homo sapiens, UniProt P00533, C797S/L858R)) for entry CC(C)c1ccc(N2CC(N(C)S(C)(=O)=O)C2)c2cnc(Nc3ccnc(N4CC[C@@H](O)[C@@H](F)C4)n3)cc12 [Compound P39a] = 2

Field IC50 (system: EGFR (L858R/C797S) (Homo sapiens, UniProt P00533, C797S/L858R)) for entry CC(C)c1ccc(N2CC(CS(C)(=O)=O)C2)c2cnc(Nc3ccnc(N4CCC(O)C(F)C4)n3)cc12 (stereo not shown) [Control A, reference compound] = 11

Field IC50 (system: EGFR (L858R/C797S) (Homo sapiens, UniProt P00533, C797S/L858R)) for entry CC(C)c1ccc(N2CC(CC(N)=O)C2)c2cnc(Nc3ccnc(-c4cnn(S(=O)(=O)C5CC5)c4)n3)cc12 = 2.9

Field IC50 (system: EGFR (L858R/C797S) (Homo sapiens, UniProt P00533, C797S/L858R)) for entry CC(C)c1ccc(N2CC(CS(C)(=O)=O)C2)c2cnc(Nc3ccnc(-c4cn[nH]c4)n3)cc12 = 4.7

Field IC50 (system: EGFR (L858R/C797S) (Homo sapiens, UniProt P00533, C797S/L858R)) for entry CC(C)c1ccc(N2CC(NS(=O)(=O)c3cccnc3)C2)c2cnc(Nc3ccnc(N4CCC(O)C(F)C4)n3)cc12 (stereo not shown) = 27

Field IC50 (system: EGFR (L858R/C797S) (Homo sapiens, UniProt P00533, C797S/L858R)) for entry CC(C)c1ccc(N2C[C@H](NS(C)(=O)=O)[C@H]2C)c2cnc(Nc3ccnc(N4CCC(O)C(F)C4)n3)cc12 (stereo partly shown) = 1.22

###

# Test system: Ba/F3-FL-EGFR-del19-C797S
# TEST NAME: CellTiter-Glo proliferation, Ba/F3-FL-EGFR-del19-C797S
# Assay type: cell-based
# RUN PARAMETERS: 72 h, proliferation, 72 hours, CellTiter-Glo; read-out: Ba/F3-FL-EGFR-del19-C797S IC50/nM
The following compounds are shown together with reported log10 of IC50 values.
Heads up: the numbers are on a log10 scale; they represent IC50 in nM.

Field log10 of IC50 (system: Ba/F3-FL-EGFR-del19-C797S) for entry CCS(=O)(=O)N[C@H]1CN(c2ccc(C(C)C)c3cc(Nc4ccnc(N5CCC(OC)C(F)C5)n4)ncc23)[C@@H]1C (stereo partly drawn) = 2.04

Field log10 of IC50 (system: Ba/F3-FL-EGFR-del19-C797S) for entry CC(C)c1ccc(N2CC(CS(C)(=O)=O)C2)c2cnc(Nc3ccnc(-c4cnn(CC#N)c4)n3)cc12 = 2.11

Field log10 of IC50 (system: Ba/F3-FL-EGFR-del19-C797S) for entry CC(C)c1ccc(N2CC(CS(C)(=O)=O)C2)c2cnc(Nc3ccnc(-c4cnn(S(=O)(=O)C5CCC5)c4)n3)cc12 = 1.36

###

# Tested on: Ba/F3-FL-EGFR-del19-C797S
# TEST NAME: CellTiter-Glo proliferation, Ba/F3-FL-EGFR-del19-C797S
# Format: cell-based
# RUN PARAMETERS: 72 h, proliferation, 72 hours, CellTiter-Glo; read-out: Ba/F3-FL-EGFR-del19-C797S IC50/nM
METRIC: IC50 (nM)
Dear colleague, please return just the value in nM, with no unit written.

Field: example entries. Status: answers known.
Form field IC50, entry CC(C)c1ccc(N2CC(CS(C)(=O)=O)C2)c2cnc(Nc3ccnc(-c4cnn(S(=O)(=O)c5ccccn5)c4)n3)cc12 [Compound H16] : 264

Form field IC50, entry CC(C)c1ccc(N2CC(NS(=O)(=O)N(C)C)C2)c2cnc(Nc3ccnc(N4CCC(O)C(F)C4)n3)cc12 (stereo not shown) [Compound P27] : 226

Form field IC50, entry CC(C)c1ccc(N2CC(CS(C)(=O)=O)C2)c2cnc(Nc3ccnc(-c4cnn(S(=O)(=O)C5COC5)c4)n3)cc12 [Compound H17] : 58

Form field IC50, entry CC(C)c1ccc(N2CC(NS(C)(=O)=O)C2)c2cnc(Nc3ccnc(N4CCC(O)C(F)(F)C4)n3)cc12 (stereo not shown) [Compound P30] : 200

Form field IC50, entry CCOCCS(=O)(=O)n1cc(-c2nccc(Nc3cc4c(C(C)C)ccc(N5C[C@H](CS(C)(=O)=O)[C@H]5C)c4cn3)n2)cn1 [Compound H22] : 14

Form field IC50, entry COC1CCN(c2nccc(Nc3cc4c(C(C)C)ccc(N5C[C@H](NS(C)(=O)=O)[C@H]5C)c4cn3)n2)CC1F (stereo partly shown) [Compound P38] : 76

Form field IC50, entry CCn1cc(-c2nccc(Nc3cc4c(C(C)C)ccc(N5CC(CS(C)(=O)=O)C5)c4cn3)n2)cn1 [Compound H27] : 53

Form field IC50, entry CCN(C1CN(c2ccc(C(C)C)c3cc(Nc4ccnc(N5CCC(OC)C(F)C5)n4)ncc23)C1)S(C)(=O)=O (stereo not shown) [Compound P31] : 295

***
Form field IC50, entry CC(C)c1ccc(N2C[C@H](N(C)S(C)(=O)=O)[C@H]2C)c2cnc(Nc3ccnc(-c4cnn(S(=O)(=O)C5CC5)c4)n3)cc12 [Compound H23] : 3.1

Form field IC50, entry COC1CCN(c2nccc(Nc3cc4c(C(C)C)ccc(N5CC(N(C)S(=O)(=O)C(F)(F)F)C5)c4cn3)n2)CC1F (stereo not shown) [Compound P50] : 3510

Form field IC50, entry CC(C)c1ccc(N2C[C@H](NS(C)(=O)=O)[C@H]2C)c2cnc(Nc3ccnc(N4CCC(O)C(F)C4)n3)cc12 (stereo partly shown) [Compound P25] : 71

Form field IC50, entry CC(C)c1ccc(N2CC(CS(C)(=O)=O)C2)c2cnc(Nc3ccnc(-c4cnn(C)c4)n3)cc12 [Compound H29] : 59

Form field IC50, entry CC(C)c1ccc(N2C[C@H](CS(C)(=O)=O)[C@H]2C)c2cnc(Nc3ccnc(-c4cnn(S(C)(=O)=O)c4)n3)cc12 [Compound H30] : 9.2
